These data points were gathered from patent US20250170248A1.

Target: SMARCA2 (Homo sapiens, UniProt P51531)
Sequence (P51531 whole entry): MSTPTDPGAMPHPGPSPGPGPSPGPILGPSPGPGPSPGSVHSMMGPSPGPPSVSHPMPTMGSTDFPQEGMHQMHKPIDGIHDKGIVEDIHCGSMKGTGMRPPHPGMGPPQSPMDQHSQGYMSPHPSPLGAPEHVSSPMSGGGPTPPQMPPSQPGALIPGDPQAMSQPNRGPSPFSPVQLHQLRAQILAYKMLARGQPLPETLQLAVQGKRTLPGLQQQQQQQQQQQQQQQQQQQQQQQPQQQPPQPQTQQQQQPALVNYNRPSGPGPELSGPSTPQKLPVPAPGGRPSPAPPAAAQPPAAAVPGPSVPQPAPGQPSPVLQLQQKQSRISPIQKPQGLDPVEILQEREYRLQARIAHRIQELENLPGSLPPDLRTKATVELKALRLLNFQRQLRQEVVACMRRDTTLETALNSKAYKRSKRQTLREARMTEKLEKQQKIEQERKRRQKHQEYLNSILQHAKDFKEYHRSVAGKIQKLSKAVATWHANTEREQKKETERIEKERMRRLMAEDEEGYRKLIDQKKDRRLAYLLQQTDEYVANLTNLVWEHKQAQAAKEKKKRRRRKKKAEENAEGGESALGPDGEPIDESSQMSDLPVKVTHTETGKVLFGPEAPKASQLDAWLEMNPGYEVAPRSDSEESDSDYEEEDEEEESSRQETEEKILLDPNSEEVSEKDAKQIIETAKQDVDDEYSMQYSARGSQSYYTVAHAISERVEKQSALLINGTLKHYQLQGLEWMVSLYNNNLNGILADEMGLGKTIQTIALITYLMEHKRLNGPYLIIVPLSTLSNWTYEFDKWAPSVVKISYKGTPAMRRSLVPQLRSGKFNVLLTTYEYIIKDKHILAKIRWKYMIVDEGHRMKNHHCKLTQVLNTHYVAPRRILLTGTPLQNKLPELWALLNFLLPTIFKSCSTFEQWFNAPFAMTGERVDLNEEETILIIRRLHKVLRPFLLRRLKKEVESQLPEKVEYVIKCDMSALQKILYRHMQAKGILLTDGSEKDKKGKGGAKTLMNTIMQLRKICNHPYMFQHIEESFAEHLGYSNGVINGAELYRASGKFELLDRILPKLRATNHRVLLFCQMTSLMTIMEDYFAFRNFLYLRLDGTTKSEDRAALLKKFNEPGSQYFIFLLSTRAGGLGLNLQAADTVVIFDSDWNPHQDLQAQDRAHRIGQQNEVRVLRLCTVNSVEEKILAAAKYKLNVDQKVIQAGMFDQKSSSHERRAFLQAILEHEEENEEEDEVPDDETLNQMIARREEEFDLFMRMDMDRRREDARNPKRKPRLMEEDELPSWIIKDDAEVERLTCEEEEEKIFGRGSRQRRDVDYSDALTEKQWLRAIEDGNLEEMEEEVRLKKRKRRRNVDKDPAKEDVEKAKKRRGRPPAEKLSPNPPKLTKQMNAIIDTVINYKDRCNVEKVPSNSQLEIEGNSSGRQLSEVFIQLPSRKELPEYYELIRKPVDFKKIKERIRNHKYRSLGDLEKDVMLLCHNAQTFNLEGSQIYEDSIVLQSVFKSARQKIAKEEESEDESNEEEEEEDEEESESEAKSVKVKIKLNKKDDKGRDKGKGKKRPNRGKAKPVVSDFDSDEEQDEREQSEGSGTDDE
Experiment: MSD SMARCA2 degradation in A549 cell line
Type: cell-based
Conditions: A549, A549 cells, 24 h
Description: Example 10. MSD SMARCA2 Degradation in A549 Cell Line Cells were seeded into 96-well plates (A549 cells: 2×10^4 cells/well/100 ul media) and incubated overnight. […] The MSD plate was washed three times with 150 uL/well of TBST and 150 ul/well of 2× MSD reading buffer diluted from 4× (MSD, R92TC-2) with water was added. Lastly, the MSD instrument was read. […]
parameter_measured: Dmax

Solved entries (count: 3):
compound	Dmax
C#Cc1ccc(CNC(=O)[C@@H]2C[C@@H](O)CN2C(=O)[C@@H](NC(=O)N2CC3(CC(N4CCC(c5cnc(N6CCc7[nH]c8nnc(-c9ccccc9O)cc8c7[C@H]6C)nc5)CC4)C3)C2)C(C)(C)CCO)c(Cl)c1 (single isomer, unassigned) [I-317]	> 90%
C#Cc1ccc(CNC(=O)[C@@H]2C[C@@H](O)CN2C(=O)[C@@H](N(CCOC)C(=O)N2CC3(CC(N4CCC(c5cnc(N6CCc7[nH]c8nnc(-c9ccccc9O)cc8c7[C@H]6C)nc5)CC4)C3)C2)C(C)(C)C)cc1 [I-140]	< 50%
C#Cc1ccc(CNC(=O)[C@@H]2C[C@@H](O)CN2C(=O)[C@@H](NC(=O)N2CC3(CC(N4CCN([C@H]5CC[C@@H](N6CCc7[nH]c8nnc(-c9ccccc9O)cc8c7[C@H]6C)CC5)CC4)C3)C2)C(C)(C)C)cc1 [I-187]	> 90%

For the next question, use this compound.
Dmax for C#Cc1ccc([C@H](CO)NC(=O)[C@@H]2C[C@@H](O)CN2C(=O)[C@@H](NC(=O)N2CC3(CC(N4CCC(c5cnc(N6CCc7[nH]c8nnc(-c9ccccc9O)cc8c7[C@H]6C)nc5)CC4)C3)C2)C(C)(C)C)nc1 (single isomer, unassigned) [I-304] is > 90%
